Test system: Trichophyton longifusum
Assay: Antimicrobial activity against Trichophyton longifusum at 200 ug/ml after 7 days by agar plate method
Type: functional
Conditions: 168 h
propertyName: inhibition at 200 µg/mL (%)
Give your result in % as a bare value.

>>> experimentalresult("Cc1nn(-c2ccccc2)c(Cl)c1/C=C/C1=Cc2c(sc(N3C(=O)[C@@H](Oc4ccc(Cl)cc4Cl)[C@H]3c3ccc(Cl)cc3)c2C#N)C(C)(C)C1 (relative stereo)")
35
>>> experimentalresult("Cc1nn(-c2ccccc2)c(Cl)c1/C=C/C1=Cc2c(sc(N3C(=O)[C@@H](Oc4ccc(Cl)cc4Cl)[C@H]3c3ccccc3Cl)c2C#N)C(C)(C)C1 (relative stereo)")
92

Fill blank: measured inhibition at 200 µg/mL of the molecule Cc1nn(-c2ccccc2)c(Cl)c1/C=C/C1=Cc2c(sc(N3C(=O)[C@@H](Oc4ccc(Cl)cc4Cl)[C@H]3c3ccccc3O)c2C#N)C(C)(C)C1 (relative stereo) is ____. 89

Param item = Cc1nn(-c2ccccc2)c(Cl)c1/C=C/C1=Cc2c(sc(N3C(=O)[C@@H](Oc4ccc(Cl)cc4Cl)[C@H]3c3ccccc3)c2C#N)C(C)(C)C1 (relative stereo) ; retrieve measured inhibition at 200 µg/mL. 40

Please report the recorded inhibition at 200 µg/mL for Clc1ccc(COC(Cn2ccnc2)c2ccc(Cl)cc2Cl)c(Cl)c1 (stereo not given) . 100

----------
The following compounds are listed with their measured zone of inhibition at 1000 µg/mL values.
System: Bacillus subtilis
Assay: Antimicrobial activity against Bacillus subtilis at 1 mg/ml after 24 hr by agar well diffusion method
Type: functional
Conditions: read-out: DIZ

>>> experimentalresult("COc1ccc([C@@H]2[C@H](Oc3ccc(Cl)cc3Cl)C(=O)N2c2sc3c(c2C#N)C=C(/C=C/c2c(C)nn(-c4ccccc4)c2Cl)CC3(C)C)cc1O (relative stereo)")
"< 10 mm"
>>> experimentalresult("Cc1nn(-c2ccccc2)c(Cl)c1/C=C/C1=Cc2c(sc(N3C(=O)[C@@H](Oc4ccc(Cl)cc4Cl)[C@H]3c3ccccc3O)c2C#N)C(C)(C)C1 (relative stereo)")
"18.9 mm"
>>> experimentalresult("Cc1nn(-c2ccccc2)c(Cl)c1/C=C/C1=Cc2c(sc(N3C(=O)[C@@H](Oc4ccc(Cl)cc4Cl)[C@H]3c3ccc(N(C)C)cc3)c2C#N)C(C)(C)C1 (relative stereo)")
"< 10 mm"
>>> experimentalresult("C=CC1=C(C(=O)O)N2C(=O)[C@@H](NC(=O)/C(=N\\OCC(=O)O)c3csc(N)n3)[C@H]2SC1")
"28.7 mm"

Attention now turns to another entry.
I'm curious: which zone of inhibition at 1000 µg/mL was measured for Cc1nn(-c2ccccc2)c(Cl)c1/C=C/C1=Cc2c(sc(N3C(=O)[C@@H](Oc4ccc(Cl)cc4Cl)[C@H]3c3ccc([N+](=O)[O-])cc3)c2C#N)C(C)(C)C1 (relative stereo) tested on Bacillus subtilis? 11.2 mm
